Test system: RAW264.7
Assay: Antiinflammatory activity in mouse RAW264.7 cells assessed as inhibition of LPS-induced NO production at 15 uM incubated for 24 hrs by Griess reagent based analysis relative to control
Format: functional
Parameters: scale not given: the % may be the effect or the level left
# Activity >= 10% gives Fulfilled, anything below gives Not fulfilled

Exam item: decide whether the reported Activity for `CC(=O)OC[C@@]1(COC(=O)c2ccccc2)O[C@H]1/C=C\COC(=O)c1ccccc1` is at least 10%.
Fulfilled

Exam item: decide whether the reported Activity for COc1ccc2c(c1)C[C@]1(OC)C(=O)/C(=C(O)\C=C\c3ccccc3)C(=O)C[C@]1(OC)O2 (racemic) is at least 10%.
Fulfilled

Exam item: decide whether the reported Activity for `CC(=O)OC[C@@](O)(COC(=O)c1ccccc1)[C@@H](O)/C=C\COC(=O)c1ccccc1` is at least 10%.
Fulfilled

Exam item: decide whether the reported Activity for `COc1ccc2c(c1)C[C@]1(OC)C(=O)/C(=C(/O)[C@H]3[C@H](c4ccccc4)[C@H](/C(O)=C4/C(=O)C[C@@]5(OC)Oc6ccc(OC)cc6C[C@@]5(OC)C4=O)[C@H]3c3ccccc3)C(=O)C[C@]1(OC)O2` is at least 10%.
Not fulfilled

Exam item: decide whether the reported Activity for `COc1ccc2c(c1)C[C@H]1[C@@H](OC(=O)c3ccccc3)[C@H](OC(C)=O)C(COC(=O)c3ccccc3)=C[C@H]1O2` is at least 10%.
Fulfilled

Exam item: decide whether the reported Activity for `COc1cc(OC)c(C(=O)/C=C/c2ccccc2)c(O)c1OC` is at least 10%.
Not fulfilled
